The reported numbers originate from the NIST ThermoML archive (doi:10.1021/acs.jced.5b00527).

Measured refractive index, listed per entry for reference.
Assay: refractive index (Na D-line) (dimensionless)
Conditions: 298.15 K; 101.33 kPa; Liquid; Standard Abbe refractometry
parameter: refractive index

1. O : 1.3324
2. CCCCO : 1.3941
3. CC(C)C(=O)O : 1.3899
4. CO : 1.3281
5. CCCC(=O)O : 1.3981
6. CC(C)OC(C)C : 1.3674

----------
Parameter: mass density. Scope: all listed entries.
Conditions: 298.15 K; 101.33 kPa; Liquid; Vibrating tube method
parameter: mass density (kg/m3)

1. CC(C)OC(C)C : 723.8
2. CC(C)C(=O)O : 941.63
3. CCCC(=O)O : 952.1
4. CCCCO : 807.96
5. CO : 791
